Every entry's value here was drawn from patent US20260042834A1.

- measurement_target: T1, biotinylated CRH (human and mouse, not fully specified; biotinylated, position not stated)
- T1 construct: also called Biotin-CRH; biotin-labeled CRH
- T1 peptide: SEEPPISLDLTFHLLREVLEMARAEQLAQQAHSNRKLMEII
- test_name: Octet BLI, biotinylated CRH on SA sensor
koff for assorted binders
Note: unit s⁻¹ is implicit; provide only the numeric part.

PR006151 (antibody, human IgG1, kappa, V domains shown, PTM-removal variant of PR004290) VH: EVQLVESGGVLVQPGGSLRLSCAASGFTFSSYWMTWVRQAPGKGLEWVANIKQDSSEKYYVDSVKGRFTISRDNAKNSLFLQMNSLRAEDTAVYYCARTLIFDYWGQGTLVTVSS VL: DIVMTQSPLSLPVTPGEPASISCRSSQSLLHSTGYHSLEWYLQKPGQSPQLLIYLGSNRASGVPDRFSGSGSGTDFTLKISRVEAEDVGIYYCMQTLQTPITFGQGTRLEIKR :: 8e-05

Challenge: Recorded koff of PR006143 (antibody, human IgG1, kappa, V domains shown, PTM-removal variant of PR004290) VH: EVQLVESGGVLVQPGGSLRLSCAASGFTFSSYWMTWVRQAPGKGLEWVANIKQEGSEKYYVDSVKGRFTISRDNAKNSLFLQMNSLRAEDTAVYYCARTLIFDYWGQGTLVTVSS VL: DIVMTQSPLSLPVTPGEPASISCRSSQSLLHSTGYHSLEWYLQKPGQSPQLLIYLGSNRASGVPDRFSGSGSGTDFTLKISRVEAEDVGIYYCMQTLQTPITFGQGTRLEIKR , please.
Response given: 2.85e-05
